Kindly state SH2 binding enrichment for each of the entries shown.
# study target: c-Src SH2;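 also: peptide library displayed on the E. coli surface as eCPX fusions, selected cells deep-sequenced, score is each peptide's frequency after selection divided by its frequency in the input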
# measurement protocol: SH2 binding enrichment of the phosphorylated peptide, bacterial display (enrichment ratio); higher = better substrate or ligand; peptides without Tyr show the background
When you answer, write just the number.

Qu. # lookup: SH2 binding enrichment of PMDGEYFTLQI [TP53_Y327_L323M]
Ans. 0.394

Qu. Look up SH2 binding enrichment for this sequence: KKCTRYIDCDL [ASPA_Y64]
Ans. 0.875

Qu. Request the reported SH2 binding enrichment associated with HHTDECEYDEL [TGM1_Y134_Y134C]
Ans. 0.516

Qu. Quick check: SH2 binding enrichment of ARVANYQRDGP [CAT_Y386] ?
Ans. 0.32

Qu. So what's the measured SH2 binding enrichment for this one? EDKFMYLEFPQ [PTEN_Y240_F241L]
Ans. 0.435

Qu. Item under review: FVFSFYHAFSG [ACTN4_Y265_S262F_YF] . Reported SH2 binding enrichment?
Ans. 1.04

Qu. # lookup: SH2 binding enrichment of EADRKYEEVAG [TPM3_Y163_R168G]
Ans. 21.4

Qu. Which SH2 binding enrichment reading was recorded for the sequence FDGKDYIALNE [HLA-A_Y147_YF] ?
Ans. 0.557

Qu. Dear colleague, I am looking for the recorded SH2 binding enrichment of the following sequence: GRVFVYHLSEQ [ITGAE_Y551_R552H_YF]
Ans. 0.614

Qu. SH2 binding enrichment for TISPYYRQSLF [CRYAA_Y48] ?
Ans. 0.678

Qu. Which SH2 binding enrichment is listed for TGHKGYVAFLE [CARD9_Y76] ?
Ans. 1.93

Qu. Sample RMDGTYACSYT [FLNB_Y704] — what was its SH2 binding enrichment?
Ans. 0.923

Qu. Any idea what SH2 binding enrichment was measured for ANNPLYKEATP [ITGB3_Y773_S778P] ?
Ans. 0.471

Qu. Consider the sequence shown here: TALFIYIRPKA [OR10C1_Y258] What is its recorded SH2 binding enrichment?
Ans. 0.494

Qu. Consider the sequence shown here: GRQWNYVASMS [KLHL4_Y552] What is its recorded SH2 binding enrichment?
Ans. 0.767

Qu. Dear colleague, I am looking for the recorded SH2 binding enrichment of the following sequence: CNPRRYPVLMS [OR2T1_Y182_L180R]
Ans. 1.18

Qu. Consider the sequence MEFLPYGSLRD [JAK2_Y934_YF] and give its measured SH2 binding enrichment.
Ans. 0.573

Qu. Which SH2 binding enrichment reading was recorded for the sequence ARAGEYGAEAL [HBA1_Y25_H21R] ?
Ans. 0.487

Qu. SH2 binding enrichment lookup needed for QEIATYPRLLE [KRT14_Y415_R416P] , thanks.
Ans. 0.443

Qu. What measured SH2 binding enrichment goes with KCLAVYQAGAR [APOE_Y180_R176C] ?
Ans. 0.677

Qu. Given LNRAGYCDALE [MTUS1_Y151_C148R] , state its recorded SH2 binding enrichment.
Ans. 0.727

Qu. Look up SH2 binding enrichment: TLEKFYFAFPG [SLC1A1_Y51]
Ans. 0.589

Qu. Given the entry LEFAKYGSLRG [RET_Y809_V804L_YF] , report its measured SH2 binding enrichment.
Ans. 0.505

Qu. For the sequence shown here, VVQGIYGYHHY [UFSP2_Y285] , give the reported SH2 binding enrichment.
Ans. 0.829

Qu. Bench note: what SH2 binding enrichment did LLPNAYIFVVQ [L1CAM_Y418_A415P_YF] show?
Ans. 0.47

Qu. Look up SH2 binding enrichment: RSAGKYDVYFI [MECP2_Y120_L124F]
Ans. 0.639

Qu. Entry under review: `GFIISYREEEQ` . Reported SH2 binding enrichment?
Ans. 0.581

Qu. Dear colleague, I am looking for the recorded SH2 binding enrichment of the following sequence: KGYCGYSYDDI [TMEM230_Y110_R108C]
Ans. 7.21

Qu. Which SH2 binding enrichment reading was recorded for the sequence GEEIKYMLWLL [OTC_Y55_S60L] ?
Ans. 0.716
